Just for reference, patent US7795285B2 is where these values come from.

# Tested on: Trypanosoma brucei rhodensiense (STIB 900 strain)
# experiment: African trypanosome protozoa growth inhibition screening test (Alamar Blue, 72 hours)
# Format: cell-based
# run conditions: Trypanosoma brucei, STIB900, 72 h, read-out: 50% growth inhibiting concentration Trypanosoma brucei rhod.
measure: pIC50
Remember, pIC50 is on a log scale: it is -log10 of the molar concentration.

Per the record, Nc1nc(N)nc(Nc2ccc([As]3SCC(CO)S3)cc2)n1 (stereo not shown) [melarsoprol, reference compound] has pIC50 of 8.22

* * *

# experiment: Growth inhibition test of rat L6 cells (Alamar Blue, 72 hours)
# Assay type: cell-based
# run conditions: 72 hours culture, Table 1, read-out: 50% growth inhibiting concentration Cytotoxicity L6
measure: IC50 at 72 h

Per the record, Nc1nc(N)nc(Nc2ccc([As]3SCC(CO)S3)cc2)n1 (stereo not shown) [melarsoprol, reference compound] has IC50 at 72 h of 7.8 µM
